Test system: human red blood cells
Measurement Protocol: Haemolytic assay
Assay type: cell-based
Test Conditions: haemolysis of human red blood cells
Recorded HC50, one value per entry.

# count of solved cases: 4
Input line: Report HC50 under test system human red blood cells for C=CCc1ccc(O)c(OC)c1 .
Output line: >400 µM

Input line: Report HC50 under test system human red blood cells for C=CCc1ccc(OC(=O)C(=C)C(O)c2cccc([N+](=O)[O-])c2)c(OC)c1 (centres unmarked) .
Output line: >400 µM

Input line: Report HC50 under test system human red blood cells for C[C@@H]1[C@H](O)[C@@H](C)/C=C/C=C/C=C/C=C/C=C/C=C/C=C/[C@H](O[C@@H]2O[C@H](C)[C@@H](O)[C@H](N)[C@@H]2O)C[C@@H]2O[C@](O)(C[C@@H](O)C[C@@H](O)[C@H](O)CC[C@@H](O)C[C@@H](O)CC(=O)O[C@H]1C)C[C@H](O)[C@H]2C(=O)O .
Output line: 11.61 µM

Input line: Report HC50 under test system human red blood cells for C=CCc1ccc(OC(=O)C(=C)C(O)c2ccc([N+](=O)[O-])cc2)c(OC)c1 (centres unmarked) .
Output line: >400 µM

Next:
Input line: Report HC50 under test system human red blood cells for C=CCc1ccc(OC(=O)C(=C)C(O)c2ccccc2[N+](=O)[O-])c(OC)c1 (centres unmarked) .
Output line: >400 µM
